- TARGET: Serotonin transporter (Rattus norvegicus)
- EXPERIMENTAL PROTOCOL: Compound was evaluated for inhibition of 5-HT uptake by measuring its ability to inhibit [3H]paroxetine binding to rat cortical membranes
VALUE TYPE: IC50 (nM)
Please reply with the bare figure in nM and do not write the unit itself.

Lookup result for CN(CCN1CCC(Cc2c[nH]c3ccc(F)cc23)CC1)S(=O)(=O)c1ccccc1 ; measured IC50: 30

Lookup result for O=S1(=O)c2ccccc2CN1CCN1CCC(Cc2c[nH]c3ccc(F)cc23)CC1 ; measured IC50: 1

Lookup result for O=C1Nc2cccc3cccc(c23)N1CCN1CCC(Cc2c[nH]c3ccc(F)cc23)CC1 ; measured IC50: 1.5

Lookup result for CC1(C)CN(CCN2CCC(Cc3c[nH]c4ccc(F)cc34)CC2)C(=O)c2ccccc21 ; measured IC50: 3.8

Lookup result for O=S1(=O)N(CCN2CCC(Cc3c[nH]c4ccc(F)cc34)CC2)c2cccc3c2N1CCC3 [RP-68303] ; measured IC50: 1.2

Lookup result for O=S1(=O)Nc2cccc3cccc(c23)N1CCN1CCC(Cc2c[nH]c3ccc(F)cc23)CC1 ; measured IC50: 12

Lookup result for O=C1Cc2ccccc2N1CCN1CCC(Cc2c[nH]c3ccc(F)cc23)CC1 ; measured IC50: 3.1

Lookup result for O=C1CSc2ccccc2N1CCN1CCC(Cc2c[nH]c3ccc(F)cc23)CC1 ; measured IC50: 1.1

Lookup result for C[Si]1(C)CN(CCN2CCC(Cc3c[nH]c4ccc(F)cc34)CC2)C(=O)c2ccccc21 ; measured IC50: 2.6

Lookup result for COC1=Nc2cccc3cccc(c23)N1CCN1CCC(Cc2c[nH]c3ccc(F)cc23)CC1 ; measured IC50: 22.6

Lookup result for O=C1N(CCN2CCC(Cc3c[nH]c4ccc(F)cc34)CC2)c2ccccc2C12CC2 ; measured IC50: 4

Lookup result for O=S(=O)(NCCN1CCC(Cc2c[nH]c3ccc(F)cc23)CC1)c1ccccc1 ; measured IC50: 6

Lookup result for O=c1[nH]c2ccccc2c(=O)n1CCN1CCC(Cc2c[nH]c3ccc(F)cc23)CC1 ; measured IC50: 0.5

Lookup result for Cn1c(=O)c2ccccc2n(CCN2CCC(Cc3c[nH]c4ccc(F)cc34)CC2)c1=O ; measured IC50: 5.9

Lookup result for CN1c2cccc3cccc(c23)N(CCN2CCC(Cc3c[nH]c4ccc(F)cc34)CC2)S1(=O)=O ; measured IC50: 3.7

Lookup result for O=C1Nc2ccccc2S(=O)(=O)N1CCN1CCC(Cc2c[nH]c3ccc(F)cc23)CC1 ; measured IC50: 2.1

---

- Tested on: Mus musculus
- EXPERIMENTAL PROTOCOL: Effective dose required for half maximal potentiation of head twitches observed with 5-HTP after oral administration (1 hr 30 min)
- Assay type: functional
For each record, write down the corresponding ED50.

Lookup result for CC1(C)CN(CCN2CCC(Cc3c[nH]c4ccc(F)cc34)CC2)C(=O)c2ccccc21 ; measured ED50: 20 mg/kg

Lookup result for O=S(=O)(NCCN1CCC(Cc2c[nH]c3ccc(F)cc23)CC1)c1ccccc1 ; measured ED50: > 20 mg/kg

Lookup result for O=C1Nc2cccc3cccc(c23)N1CCN1CCC(Cc2c[nH]c3ccc(F)cc23)CC1 ; measured ED50: 2 mg/kg

Lookup result for O=C1Nc2ccccc2S(=O)(=O)N1CCN1CCC(Cc2c[nH]c3ccc(F)cc23)CC1 ; measured ED50: > 20 mg/kg

Lookup result for O=C1c2cccc3cccc(c23)C(=O)N1CCN1CCC(Cc2c[nH]c3ccc(F)cc23)CC1 ; measured ED50: 2.3 mg/kg

Lookup result for C[Si]1(C)CN(CCN2CCC(Cc3c[nH]c4ccc(F)cc34)CC2)C(=O)c2ccccc21 ; measured ED50: > 20 mg/kg

Lookup result for O=C1CN(CCN2CCC(Cc3c[nH]c4ccc(F)cc34)CC2)S(=O)(=O)c2ccccc21 ; measured ED50: > 20 mg/kg

Lookup result for O=C1CSc2ccccc2N1CCN1CCC(Cc2c[nH]c3ccc(F)cc23)CC1 ; measured ED50: > 20 mg/kg

---

- Tested on: Mus musculus
- EXPERIMENTAL PROTOCOL: Effective dose required for half maximal potentiation of head twitches observed with 5-HTP after oral administration (1 hr 30 min)
- Format: functional
For each record, write down the corresponding ED50.
Please reply with the bare figure in mg/kg and do not write the unit itself.

Lookup result for O=c1[nH]c2ccccc2c(=O)n1CCN1CCC(Cc2c[nH]c3ccc(F)cc23)CC1 ; measured ED50: 20

Lookup result for O=S1(=O)c2ccccc2CN1CCN1CCC(Cc2c[nH]c3ccc(F)cc23)CC1 ; measured ED50: 7.2

Lookup result for Cn1c(=O)c2ccccc2n(CCN2CCC(Cc3c[nH]c4ccc(F)cc34)CC2)c1=O ; measured ED50: 20
